// data source = patent US6355658B1

assay.readout: melting point

Answered cases to consult:
# molecule, melting point
data = [
    ("O=C(OC1CCCCCCC1)c1cc2cc(CCl)ccc2oc1=O", "169 to 170 °C"),
    ("O=C(Sc1cccc(Cl)c1)c1cc2cc(CCl)ccc2oc1=O", "194 to 195 °C"),
    ("O=C(Oc1cccnc1Cl)c1cc2cc(CCl)ccc2oc1=O", "198 to 200 °C"),
]

Look up melting point of `O=C(Oc1cccc2cccnc12)c1cc2cc(CCl)ccc2oc1=O` and report it.
127 °C (dec.)

Look up melting point of `CC(=O)OCc1ccc2oc(=O)c(C(=O)Oc3cc(Cl)ccc3Cl)cc2c1` and report it.
168 to 171 °C

Look up melting point of `CC(=O)OCc1ccc2oc(=O)c(C(=O)Oc3cc([N+](=O)[O-])ccc3[N+](=O)[O-])cc2c1` and report it.
162 to 164 °C

Look up melting point of `O=C(Nc1cccnc1Cl)c1cc2cc(CCl)ccc2oc1=O` and report it.
211 °C (dec.)

Look up melting point of `O=C(Oc1cccnc1[N+](=O)[O-])c1cc2cc(CCl)ccc2oc1=O` and report it.
190 to 193 °C
